- Test system: MCF7
- TEST_DETAILS: NCI tumour cell line growth inhibition, 48 h
The source made the active and inactive calls. Cut-off read from the data, not from the text of the source: active = GI50 up to about 1.1 µM and inactive = higher.
Bench note: report the call from active, inactive

Use the examples below as a reference point.
[
  {
    "SMILES_STRUCTURE": "S=c1oc(CCCCCCCCc2nn(CNc3ccc(Cl)cc3)c(=S)o2)nn1CNc1ccc(Cl)cc1",
    "CLASS_LABEL": "inactive"
  },
  {
    "SMILES_STRUCTURE": "COc1ccccc1NC(=S)N/N=C/c1cccc(C)n1",
    "CLASS_LABEL": "inactive"
  },
  {
    "SMILES_STRUCTURE": "COC(=O)c1cc(C(=O)OC)cc(-c2ccc3c(c2)-c2nc4c(c(-c5ccc(OC)cc5)c2CC3)CCc2ccc(-c3cc(C(=O)OC)cc(C(=O)OC)c3)cc2-4)c1",
    "CLASS_LABEL": "inactive"
  },
  {
    "SMILES_STRUCTURE": "Cn1cc(C[C@@H](N)C(=O)O)c2ccccc21",
    "CLASS_LABEL": "inactive"
  },
  {
    "SMILES_STRUCTURE": "CN(C)Cc1cc(/N=N/c2ccccc2Cl)ccc1O",
    "CLASS_LABEL": "inactive"
  },
  {
    "SMILES_STRUCTURE": "[N-]=[N+]=Nc1c(Cl)c(=O)n(-c2ccccc2)c2ccccc12",
    "CLASS_LABEL": "inactive"
  }
]

# lookup: test call for N=C(N)n1nc2c(c1O)CCC2
inactive

# lookup: test call for O=C1C=CC(=O)N1n1c(Cc2ccccc2)n[nH]c1=O
inactive

# lookup: test call for CC(=O)/C=N/CC(=O)O
inactive

# lookup: test call for COC(=O)NN(C(=O)OC)c1c(-c2ccccc2)nc(SC)n1N
inactive

# lookup: test call for NCCCNc1ccc2c3c(nn2CCNCCO)-c2c(O)ccc(O)c2C(=O)c13
active

# lookup: test call for Cc1cc2nc3ccccc3n2c2ccccc12
inactive
